Tested on: RXF 393 renal
methodDescription: NCI-60 one-dose screen, 48 h (100 = growth as untreated, 0 = no growth, -100 = all killed)
measurementContext: 10 µM unless noted
The panel holds about 83,000 compounds, 20% with a hit somewhere; the sample as a whole holds those more often.
recordedEndpoint: growth (%)
Reply with just the number (in %).

compound=Nc1ccc2[nH]c(-c3ccccc3)cc(=O)c2c1 subjectoftest="RXF 393 renal" recordedendpoint=growth assayresult=89.9
compound=O=[N+]([O-])c1ccc(-n2[nH]nnc2=S)cc1 subjectoftest="RXF 393 renal" recordedendpoint=growth assayresult=166
compound=O=C(O)c1cc(C(=O)O)cc([N+](=O)[O-])c1 subjectoftest="RXF 393 renal" recordedendpoint=growth assayresult=123
compound="Nc1ncnc2c1ncn2C1CC(O)C(CO)O1 (stereo not given)" subjectoftest="RXF 393 renal" recordedendpoint=growth assayresult=109
compound=NC(=S)NS(=O)(=O)c1ccc(N)cc1 subjectoftest="RXF 393 renal" recordedendpoint=growth assayresult=101

Q: Tell me its growth given CC12CCC(CC1)C(C)(C)O2 as the entry.
Result: 117

Q: Supply growth value. Item: O=C(O)C1(C(=O)O)CCC1.[NH2-].[NH2-].[Pt+2]
Result: 93.9

* * *

Test system: A549/ATCC NSCLC
methodDescription: NCI-60 one-dose screen, 48 h (100 = growth as untreated, 0 = no growth, -100 = all killed)
measurementContext: 10 µM unless noted
The panel holds about 83,000 compounds, 20% with a hit somewhere; the sample as a whole holds those more often.
recordedEndpoint: growth (%)
Field format: number, assumed %, no unit text.

Worked examples follow.
compound=S=C1SCN(Cc2ccccc2)CN1Cc1ccccc1 assayresult=93.7
compound=CCN(CC)C(=S)SSC(=S)N(CC)CC assayresult=85.5
compound=O=C(O)CSCc1nc2ccccc2[nH]1 assayresult=110
compound="NC(=O)c1ccccc1OCC(O)CO (centres undefined)" assayresult=98.1
compound=OCc1ccccn1 assayresult=102
compound=O=C1OC2(c3ccccc31)c1ccc(O)c(O)c1Oc1c2ccc(O)c1O assayresult=105
compound=N#C/C(=C/c1c(O)ccc2ccccc12)C(N)=O assayresult=107
compound=N=C1N=C(N)CS1 assayresult=96.6

Q: Annotate the compound O=C(O)c1cc(C(=O)O)cc([N+](=O)[O-])c1 with its measured growth.
Result: 106

Q: Given Cc1ccc(-c2noc(C)n2)cc1 , respond with its growth.
Result: 93.6

Q: Supply recorded growth for CC12CCC(CC1)C(C)(C)O2 here.
Result: 102

Q: Read the entry c1ccc(N(c2ccccc2)c2ccccc2)cc1 and write its reported growth.
Result: 99

Q: Provide one value: measured growth of COc1ccc(NC(=S)Nc2ccccn2)cc1
Result: 101

Q: Tell me its growth given O=[N+]([O-])c1ccc(N/N=C\c2cc(Br)ccc2O)nc1 as the entry.
Result: 21.4

Q: Look up and state reported growth for Nc1ccc2ccc(N)cc2c1
Result: 82.5

Q: Indicate the recorded growth value for this compound: CCOC(=O)c1sc(N)nc1-c1ccccc1
Result: 101

Q: Tell me growth reported for O=C(CCc1ccc(O)cc1)N/N=C/c1cc(Br)ccc1O
Result: 47.6

Q: Return growth for the following compound: CN(Cc1ccccc1)Cc1ccccc1
Result: 96.7

Q: Using known records, supply growth for Clc1nc(Oc2ccccc2)nc(-c2cn(-c3ccccc3)c3ccccc23)n1
Result: 102
